# Tested on: MOLT-4 leukemia
# MEASUREMENT NOTES: NCI tumour cell line growth inhibition, 48 h
READOUT LABEL: GI50

Solved cases (3 shown):
[[record]]
smiles_structure = "COc1ccc(/C=C(\\C#N)n2nnc3cc(Cl)ccc32)cc1"
study_target = "MOLT-4 leukemia"
endpoint_result = "1090 nM"

[[record]]
smiles_structure = "COc1ccc(/C=C/C(=O)/C=C(/C=C/c2ccc(OC)c(OC)c2)OB(F)F)cc1OC"
study_target = "MOLT-4 leukemia"
endpoint_result = "449 nM"

[[record]]
smiles_structure = "O=C1C(Cl)=C(Oc2ccccc2)C(=O)c2ccccc21"
study_target = "MOLT-4 leukemia"
endpoint_result = "4090 nM"


Then this compound:
query: Would you mind telling me what GI50 value was observed for COC(=O)/C=C1\SC(=Nc2ccc(C(F)(F)F)cc2)N(CCc2c[nH]c3ccccc23)C1=O ?
result: 1220 nM

---

# Tested on: 786-0 renal
# MEASUREMENT NOTES: NCI tumour cell line growth inhibition, 48 h
READOUT LABEL: GI50

Solved cases (3 shown):
[[record]]
smiles_structure = "COc1cc(-c2cc(C(=O)Nc3nc4ccccc4s3)nc3cc(-c4ccccc4)nn23)cc(OC)c1OC"
study_target = "786-0 renal"
endpoint_result = "2590 nM"

[[record]]
smiles_structure = "COc1ccc(-n2c(-c3ccc(NC(=O)CCCl)cc3)nnc2-c2cc(OC)c(OC)c(OC)c2)cc1"
study_target = "786-0 renal"
endpoint_result = "12500 nM"

[[record]]
smiles_structure = "Cc1ccc2c(/C=C/C(=O)c3cc(CN4CCOCC4)c(O)c4nc(C)ccc34)cc(CN3CCOCC3)c(O)c2n1"
study_target = "786-0 renal"
endpoint_result = "1400 nM"


query: Would you mind telling me what GI50 value was observed for COc1cccc(-c2nc(-c3ccc(NS(=O)(=O)c4ccccc4)cc3)[nH]c2-c2ccnc(Br)c2)c1 ?
result: 2980 nM

query: Would you mind telling me what GI50 value was observed for COc1cccc2c(Nc3ccc(C(=O)NCCNCCO)cc3)cc(-c3ccccc3)nc12 ?
result: 33500 nM

query: Would you mind telling me what GI50 value was observed for COc1cc2c3c(n(CCCO)c(=O)c2cc1OC)-c1cc2c(cc1C3=O)OCO2 ?
result: 2460 nM

query: Would you mind telling me what GI50 value was observed for c1ccc(Oc2c3ccccc3nc3ccccc23)cc1 ?
result: 3080 nM

query: Would you mind telling me what GI50 value was observed for NCCCn1c2c(c3ccccc3c1=O)C(=O)c1cc3c(cc1-2)OCO3 ?
result: 241 nM

query: Would you mind telling me what GI50 value was observed for C[C@@H](Oc1cc(-c2cnn(C3CCNCC3)c2)cnc1N)c1c(Cl)ccc(F)c1Cl ?
result: 2720 nM

query: Would you mind telling me what GI50 value was observed for CN(C)CCCNC(=O)c1cc(NC(=O)c2cc(NC(=O)CCCN3c4ccccc4C=Cc4ccccc43)cn2C)cn1C ?
result: 11400 nM

query: Would you mind telling me what GI50 value was observed for CCOC(=O)Oc1c(OC)cc(C(=O)c2ccc(OC)c(OC(=O)CCl)c2OC)cc1OC ?
result: 3450 nM

query: Would you mind telling me what GI50 value was observed for Cc1c2ncccc2c(C)c2c1[nH]c1ccc(O)cc12 ?
result: 5250 nM

query: Would you mind telling me what GI50 value was observed for CCN(CC)c1ccc2[nH]c3c(C(N)=O)cc(=O)c(=O)c=3oc2c1 ?
result: 2420 nM

query: Would you mind telling me what GI50 value was observed for COc1ccc(/C=C(\C#N)n2nnc3cc(Cl)ccc32)cc1 ?
result: 709 nM

query: Would you mind telling me what GI50 value was observed for Cc1cc(S(=O)(=O)Nc2nnc(-c3ccco3)c(-c3ccco3)n2)c(SCc2ccccc2)cc1Cl ?
result: 38800 nM
